Target: Cytochrome P450 2C9 (Homo sapiens)
Assay: Cytochrome P450 family 2 subfamily C member 9 (CYP2C9) small molecule antagonists: luciferase biochemical (cell-free) qHTS assay (AID 1645842); also: nearly all actives have a fitted effect of over 55% in size
Conditions: P450-Glo CYP2C9 enzyme assay, luciferin luminescence; series mostly up to 57.4 µM
Results filed as inconclusive are left out. Calls of active or inactive are those of the source. Calls follow the shape of the dose curve; as a rule, active = well fitted inhibition curve with a large enough effect in the repeat runs; inconclusive = weak or mixed curves; inactive = no such curve, though single readings can be large or run the other way.
Just give me one of these, please: class 1 = active, class 0 = inactive

# count of solved cases: 8
Prompt: Would you mind telling me which call this test gave Nc1ccn([C@@H]2O[C@H](CO)[C@@H](O)C2(F)F)c(=O)n1 ?
Completion: class 0

Prompt: Would you mind telling me which call this test gave COC(=O)C1=C(C)NC(C)=C(C(=O)O[C@@H]2CCCN(Cc3ccccc3)C2)[C@@H]1c1cccc([N+](=O)[O-])c1 ?
Completion: class 1

Prompt: Would you mind telling me which call this test gave c1ccc(-c2ccc(C(c3ccccc3)n3ccnc3)cc2)cc1 (stereo unspecified) ?
Completion: class 1

Prompt: Would you mind telling me which call this test gave c1ccc(CNCCNCc2ccccc2)cc1 ?
Completion: class 0

Prompt: Would you mind telling me which call this test gave CC(=O)[C@H]1CC[C@H]2[C@@H]3C[C@H](C)C4=CC(=O)CC[C@]4(C)[C@H]3[C@@H](O)C[C@]12C ?
Completion: class 1

Prompt: Would you mind telling me which call this test gave CN(C)CCOc1ccccc1Cc1ccccc1 ?
Completion: class 0

Prompt: Would you mind telling me which call this test gave C[C@]12CCC(=O)C=C1CC[C@H]1[C@@H]3CC[C@](O)(C(=O)CO)[C@@]3(C)C[C@H](O)[C@@]12F ?
Completion: class 0

Prompt: Would you mind telling me which call this test gave Nc1nc2ncc(CNc3ccc(C(=O)N[C@@H](CCC(=O)O)C(=O)O)cc3)nc2c(=O)[nH]1 ?
Completion: class 0

New cases:
Prompt: Would you mind telling me which call this test gave Cc1ccc(O)c2ncccc12 ?
Completion: class 0

Prompt: Would you mind telling me which call this test gave CCN(CCCc1ccccc1)CCCc1ccccc1 ?
Completion: class 0
